- Tested Target: Estrogen receptor (Bos taurus) (UniProt Q9XSB5+P49884)
- Procedure Details: Ratio of displacement of 17-beta-[3H]-estradiol from calf uterine estrogen receptor compared to 17-beta-estradiol after 12 hr incubation
- Type: protein assay
Measure Name: relative binding affinity (RBA)

Some entries whose results are on file:
[[record]]
compound_string = "C[C@]12CC[C@@H]3c4ccc(O)cc4C[C@@H](CCCCCCCCCCCOc4ccc(I)cc4)[C@H]3[C@@H]1CC[C@@H]2O"
measure_name = "relative binding affinity (RBA)"
value_measured = 0.1

[[record]]
compound_string = "C[C@]12CC[C@@H]3c4ccc(O)cc4CC[C@H]3[C@@H]1C[C@@H](I)[C@@H]2O"
measure_name = "relative binding affinity (RBA)"
value_measured = 22.1

[[record]]
compound_string = "C[C@]12CC[C@@H]3c4ccc(O)cc4C[C@@H](CCCCCCCCCCCBr)[C@H]3[C@@H]1CC[C@@H]2O"
measure_name = "relative binding affinity (RBA)"
value_measured = 0.05

[[record]]
compound_string = "C[C@]12CC[C@@H]3c4ccc(O)cc4C[C@@H](CCCCCCCCCCCOc4ccccc4)[C@H]3[C@@H]1CC[C@@H]2O"
measure_name = "relative binding affinity (RBA)"
value_measured = 0.1

[[record]]
compound_string = "C[C@]12CC[C@@H]3c4ccc(O)cc4C[C@@H](CCCCCCCCCCCCl)[C@H]3[C@@H]1CC[C@@H]2O"
measure_name = "relative binding affinity (RBA)"
value_measured = 0.7

[[record]]
compound_string = "C=CCCCCCCCCC[C@@H]1Cc2cc(O)ccc2[C@H]2CC[C@]3(C)[C@@H](O)CC[C@H]3[C@H]12"
measure_name = "relative binding affinity (RBA)"
value_measured = 0.09

[[record]]
compound_string = "C[C@]12CC[C@@H]3c4ccc(O)cc4C[C@@H](CCCCCCCCCCCI)[C@H]3[C@@H]1CC[C@@H]2O"
measure_name = "relative binding affinity (RBA)"
value_measured = 0.04


P: C[C@]12CC[C@@H]3c4ccc(O)cc4C[C@@H](CCCCCCCCCCCF)[C@H]3[C@@H]1CC[C@@H]2O
Q: C[C@]12CC[C@@H]3c4ccc(O)cc4C[C@@H](CCCCCCCCCCCO)[C@H]3[C@@H]1CC[C@@H]2O
Query :: I'd appreciate it if you could identify which of P and Q has the greater relative binding affinity (RBA). Output the label that corresponds to your choice.
Result :: Q
(Q: 2.9, P: 1.3)

###

- Tested Target: Estrogen receptor (Bos taurus) (UniProt Q9XSB5+P49884)
- Procedure Details: Ratio of displacement of 17-beta-[3H]-estradiol from calf uterine estrogen receptor compared to 17-beta-estradiol after 20 hr incubation
- Assay type: protein assay
Measure Name: relative binding affinity (RBA)

[[record]]
compound_string = "C[C@]12CC[C@@H]3c4ccc(O)cc4C[C@@H](CCCCCCCCCCCO)[C@H]3[C@@H]1CC[C@@H]2O"
value_measured = 2

[[record]]
compound_string = "C[C@]12CC[C@@H]3c4ccc(O)cc4C[C@@H](CCCCCCCCCCCBr)[C@H]3[C@@H]1CC[C@@H]2O"
value_measured = 0.2

[[record]]
compound_string = "C[C@]12CC[C@@H]3c4ccc(O)cc4C[C@@H](CCCCCCCCCCCF)[C@H]3[C@@H]1CC[C@@H]2O"
value_measured = 1.5

[[record]]
compound_string = "C[C@]12CC[C@@H]3c4ccc(O)cc4CC[C@H]3[C@@H]1C[C@@H](I)[C@@H]2O"
value_measured = 27.1

[[record]]
compound_string = "C=CCCCCCCCCC[C@@H]1Cc2cc(O)ccc2[C@H]2CC[C@]3(C)[C@@H](O)CC[C@H]3[C@H]12"
value_measured = 0.09

[[record]]
compound_string = "C[C@]12CC[C@@H]3c4ccc(O)cc4C[C@@H](CCCCCCCCCCCOc4ccccc4)[C@H]3[C@@H]1CC[C@@H]2O"
value_measured = 0.1

[[record]]
compound_string = "C[C@]12CC[C@@H]3c4ccc(O)cc4C[C@@H](CCCCCCCCCCCI)[C@H]3[C@@H]1CC[C@@H]2O"
value_measured = 0.1


P: C[C@]12CC[C@@H]3c4ccc(O)cc4C[C@@H](CCCCCCCCCCCCl)[C@H]3[C@@H]1CC[C@@H]2O
Q: C[C@]12CC[C@@H]3c4ccc(O)cc4C[C@@H](CCCCCCCCCCCOc4ccc(I)cc4)[C@H]3[C@@H]1CC[C@@H]2O
Query :: # query: argmin of relative binding affinity (RBA) over P and Q Output the label that corresponds to your choice.
Result :: Q
(Q: 0.09, P: 0.7)
